Recorded values, source ChEMBL document CHEMBL3885881.

Reported SODIUM values follow for various molecules
# Organism: Rattus norvegicus
# Experimental protocol: DrugMatrix - Regimen: Daily Repeat
# Assay type: toxicity, organism-based, Sprague-Dawley
# Set-up: regimen Daily Repeat, gender Male, age 6-8 weeks
# Condition description: in vivo, po, 0 mg/kg, 72 h, tissue Plasma, route oral GAVAGE, dose level Control, time 3 day, […]
Number in MEQ/L, nothing else.

Reported SODIUM, molecule CSc1ccc2c(c1)N(CCC1CCCCN1C)c1ccccc1S2 (configuration not stated) : ____
144.37

---

Reported CHOLESTEROL values follow for various compounds
# Organism: Rattus norvegicus
# Experimental protocol: DrugMatrix - Regimen: Daily Repeat
# Type: toxicity, organism-based, Sprague-Dawley
# Parameters: regimen Daily Repeat, gender Male, age 6-8 weeks
# Condition description: in vivo, po, 0 mg/kg, 72 h, tissue Plasma, route oral GAVAGE, dose level Control, time 3 day, vehicle 100 % WATER
A complete answer gives the number followed by the unit.

The following compounds have reported results that may help.
1) NC(=O)c1ncn([C@@H]2O[C@H](CO)[C@@H](O)[C@H]2O)n1; 72.5 mg/dL
2) CC(CCc1ccccc1)NCC(O)c1ccc(O)c(C(N)=O)c1 (stereo not given); 76 mg/dL
3) CNCCC=C1c2ccccc2CCc2ccccc21; 77.67 mg/dL
4) O=C1NC(=O)C(c2ccccc2)(c2ccccc2)N1; 77.67 mg/dL
5) CC1COc2c(N3CCN(C)CC3)c(F)cc3c(=O)c(C(=O)O)cn1c23 (stereo not given); 66 mg/dL
6) CC1(C)S[C@@H]2[C@H](NC(=O)[C@H](N)c3ccc(O)cc3)C(=O)N2[C@H]1C(=O)O; 76 mg/dL

Reported CHOLESTEROL, compound Cn1cnc([N+](=O)[O-])c1Sc1ncnc2nc[nH]c12 : ____
71.17 mg/dL

Reported CHOLESTEROL, compound Clc1ccc(C(c2ccccc2Cl)C(Cl)Cl)cc1 (stereo not given) : ____
69 mg/dL

Reported CHOLESTEROL, compound NCC1(CC(=O)O)CCCCC1 : ____
77 mg/dL

Reported CHOLESTEROL, compound Cc1cc(NS(=O)(=O)c2ccc(N)cc2)no1 : ____
68.83 mg/dL

Reported CHOLESTEROL, compound CN1CCC[C@H]1c1cccnc1 : ____
66 mg/dL

Reported CHOLESTEROL, compound CN1CCN(C(=O)OC2c3nccnc3C(=O)N2c2ccc(Cl)cn2)CC1 (stereo not given) : ____
63.67 mg/dL

Reported CHOLESTEROL, compound C[C@]12Cc3c[nH]nc3C[C@@H]1CC[C@@H]1[C@@H]2CC[C@@]2(C)[C@H]1CC[C@]2(C)O : ____
78.83 mg/dL

Reported CHOLESTEROL, compound Nc1ccc(S(=O)(=O)Nc2ccnn2-c2ccccc2)cc1 : ____
72.5 mg/dL

Reported CHOLESTEROL, compound CC(C)(S)[C@@H](N)C(=O)O : ____
65.17 mg/dL

Reported CHOLESTEROL, compound NNC(=O)c1ccncc1 : ____
73.67 mg/dL

Reported CHOLESTEROL, compound COc1ccc(C(CN(C)C)C2(O)CCCCC2)cc1 (stereo not given) : ____
68.83 mg/dL

Reported CHOLESTEROL, compound Fc1ccc([C@@H]2CCNC[C@H]2COc2ccc3c(c2)OCO3)cc1 : ____
78.83 mg/dL

Reported CHOLESTEROL, compound COc1cc2c(N3CCN(C(=O)Nc4ccc(OC(C)C)cc4)CC3)ncnc2cc1OCCCN1CCCCC1 : ____
79.83 mg/dL

Reported CHOLESTEROL, compound COc1cccc(C2(O)CCCCC2CN(C)C)c1 (stereo not given) : ____
78.83 mg/dL

---

Reported LEUKOCYTE COUNT values follow for various compounds
# Species: Rattus norvegicus
# Experimental protocol: DrugMatrix - Regimen: Daily Repeat
# Format: toxicity, organism-based, Sprague-Dawley
# Design: regimen Daily Repeat, gender Male, age 6-8 weeks
# Condition description: in vivo, iv, 0 mg/kg, 72 h, tissue Blood, dose level Control, time 3 day, vehicle 100 % SALINE
Number in x10E3/uL, nothing else.

Reported LEUKOCYTE COUNT, compound CC1(C)S[C@@H]2[C@H](NC(=O)[C@H](NC(=O)N3CCNC3=O)c3ccccc3)C(=O)N2[C@H]1C(=O)O [AZLOCILLIN] : ____
10.33

Reported LEUKOCYTE COUNT, compound NCC[C@H](O)C(=O)N[C@@H]1C[C@H](N)[C@@H](O[C@H]2O[C@H](CN)[C@@H](O)[C@H](O)[C@H]2O)[C@H](O)[C@H]1O[C@H]1O[C@H](CO)[C@@H](O)[C@H](N)[C@H]1O [AMIKACIN] : ____
8.37

Reported LEUKOCYTE COUNT, compound CN(N=O)C(=O)N[C@@H](C=O)[C@@H](O)[C@H](O)[C@H](O)CO [STREPTOZOCIN] : ____
14.97

Reported LEUKOCYTE COUNT, compound CC[C@@]1(O)C(=O)OCc2c1cc1n(c2=O)Cc2cc3ccccc3nc2-1 [CAMPTOTHECIN] : ____
11.08

---

# Organism: Rattus norvegicus
# Experimental protocol: DrugMatrix - Regimen: Daily Repeat
# Assay type: toxicity, organism-based, Sprague-Dawley
# Parameters: regimen Daily Repeat, gender Male, age 6-8 weeks
# Condition description: in vivo, po, 2000 mg/kg, 72 h, tissue Plasma, route oral GAVAGE, dose level High, time 3 day, vehicle .5 % CMC
Reported SODIUM values follow for various compounds

The following compounds have reported results that may help.
1. NCCCC[C@H](N[C@@H](CCc1ccccc1)C(=O)O)C(=O)N1CCC[C@H]1C(=O)O [LISINOPRIL ANHYDROUS]; 141.1 MEQ/L
2. NCC(=O)O [GLYCINE]; 145.67 MEQ/L
3. CC(=O)O[C@]1(C(C)=O)CC[C@H]2[C@@H]3C=C(Cl)C4=CC(=O)CC[C@]4(C)[C@H]3CC[C@@]21C [CHLORMADINONE ACETATE]; 144.97 MEQ/L

Reported SODIUM, compound CC(C)[C@H](N)C(=O)OCCOCn1cnc2c(=O)[nH]c(N)nc21 [VALACYCLOVIR] : ____
143.87 MEQ/L

---

# Organism: Rattus norvegicus
# Experimental protocol: DrugMatrix - Regimen: Daily Repeat
# Type: toxicity, organism-based, Sprague-Dawley
# Set-up: regimen Daily Repeat, gender Male, age 6-8 weeks
# Condition description: in vivo, po, 0 mg/kg, 120 h, tissue Plasma, route oral GAVAGE, dose level Control, time 5 day, […]
Reported TOTAL BILIRUBIN values follow for various compounds
Number in mg/dL, nothing else.

Reported TOTAL BILIRUBIN, compound COc1ccc2c(c1)c(CC(=O)OCC(=O)O)c(C)n2C(=O)c1ccc(Cl)cc1 : ____
0.13

Reported TOTAL BILIRUBIN, compound CN(C)CCCC1(c2ccc(F)cc2)OCc2cc(C#N)ccc21 (centres undefined) : ____
0.2

Reported TOTAL BILIRUBIN, compound CC(C)n1c(/C=C/C(O)CC(O)CC(=O)O)c(-c2ccc(F)cc2)c2ccccc21 (centres undefined) : ____
0.25

Reported TOTAL BILIRUBIN, compound CCCC[C@@H](CC)COC(=O)c1ccccc1C(=O)OC[C@@H](CC)CCCC [BIS(2-ETHYLHEXYL)PHTHALATE] : ____
0.17

---

Reported ERYTHROCYTE COUNT values follow for various compounds
# Species: Rattus norvegicus
# Experimental protocol: DrugMatrix - Regimen: Daily Repeat
# Format: toxicity, organism-based, Sprague-Dawley
# Design: regimen Daily Repeat, gender Male, age 6-8 weeks
# Condition description: in vivo, po, 0 mg/kg, 72 h, tissue Blood, route oral GAVAGE, dose level Control, time 3 day, vehicle .5 % CMC
Number in x10E6/uL, nothing else.

The following compounds have reported results that may help.
1. CCc1ccc(C(=O)C(C)CN2CCCCC2)cc1 (stereo not given); 5.38
2. CCC[C@@H]1C[C@@H](C(=O)N[C@@H]([C@H]2O[C@H](SC)[C@H](O)[C@@H](O)[C@H]2O)[C@@H](C)O)N(C)C1; 5.76
3. CN1C(C(=O)Nc2ccccn2)=C(O)c2ccccc2S1(=O)=O; 6.03
4. CC1(C)[C@H]2CC[C@]1(C)C(=O)C2 [(-)-CAMPHOR]; 5.76

Reported ERYTHROCYTE COUNT, compound C[C@]12CCC(=O)C=C1CC[C@@H]1[C@@H]2C(=O)C[C@@]2(C)[C@H]1CC[C@]2(O)C(=O)CO : ____
6.96

---

# Species: Rattus norvegicus
# Experimental protocol: DrugMatrix - Regimen: Daily Repeat
# Type: toxicity, organism-based, Sprague-Dawley
# Parameters: regimen Daily Repeat, gender Male, age 6-8 weeks
# Condition description: in vivo, po, 10 mg/kg, 72 h, tissue Plasma, route oral GAVAGE, dose level Low, time 3 day, vehicle .5 % CMC
Reported CREATININE values follow for various compounds
Number in mg/dL, nothing else.

The following compounds have reported results that may help.
1) CC(=O)O[C@]1(C(C)=O)CC[C@H]2[C@@H]3C=C(Cl)C4=CC(=O)CC[C@]4(C)[C@H]3CC[C@@]21C [CHLORMADINONE ACETATE]; 0.17
2) O=C1CN=C(c2ccccc2)c2cc([N+](=O)[O-])ccc2N1 [NITRAZEPAM]; 0.18

Reported CREATININE, compound COc1c(C)c2c(c(O)c1C/C=C(\C)CCC(=O)OCCN1CCOCC1)C(=O)OC2 [MYCOPHENOLATE MOFETIL] : ____
0.14

Reported CREATININE, compound NS(=O)(=O)c1cc2c(cc1Cl)NCNS2(=O)=O [HYDROCHLOROTHIAZIDE] : ____
0.15
